Provenance of the data: patent US20260151494A1

subject_of_test: T1, human CD71 extracellular domain (CD71-ECD) (human, UniProt P02786 89-760)
T1 construct: also called hCD71; human CD71-ECD
run_description: primary ELISA; note: test concentration or dose not given here
readout_name: RLU (RLU)

* CD71-binding FN3 domain SEQ ID NO: 271 (designed binder) MSLPAPKNLVVSRITEDSARLSWTAPDAAFDSFEIGYWENAYKGEAIVLTVPGSERSYDLTGLKPGTEYVVFIGGVKGGVWSVPLSAIFTT | 2.57e+06
* CD71-binding FN3 domain SEQ ID NO: 311 (designed binder) MSLPAPKNLVVSRVTEDSARLSWTAPDAAFDSFEIGYWENAYKGEAIVLTVPGSERSYDLTGLKPGTEYVVFIGGVKGGSWSNPLSAIFTT | 2.38e+06
